Assignment: determine reported Activity: biotin-binding activity after 32 min treatment at 99.9° C. for the given molecules.
# assay-method-text: Microplate assay: remaining biotin-binding activity after heat treatment
# Format: physicochemical
# assay-context: 50 mM phosphate buffer, 100 mM NaCl, pH 7.0
Give just the numeric value; % need not be written.

Given the molecule ChiAVD(I117Y): Residues 38-58 moved from AVR4/5 to avidin and mutation I117Y in 1-3 subunit interface (SEQ ID NO:16) (protein, listed as Gallus gallus) MVHATSPLLLLLLLSLALVAPGLSARKCSLTGKWTNDLGSNMTIGAVNSRGEFTGTYITAVADNPGNITLSPLLGIQHKRASQPTFGFTVNWKFSESTTVFTGQCFIDRNGKEVLKTMWLLRSSVNDIGDDWKATRVGYNIFTRLRTQKE , write its reported Activity: biotin-binding activity after 32 min treatment at 99.9° C..
98

Give the value of Activity: biotin-binding activity after 32 min treatment at 99.9° C. reported for the following: AVR4/5(C122S)-b: AVR4/5(C122S) produced in E. coli, non-glycosylated, three additional N-terminal residues (Gln-Thr-Val) (protein, UniProt P56734 25-150, looked up, variant C122S, N-terminal Gln-Thr-Val extension) Avidin-related protein 4/5: ARKCSLTGKWTNNLGSIMTIRAVNSRGEFTGTYLTAVADNPGNITLSPLLGIQHKRASQPTFGFTVHWNFSESTTVFTGQCFIDRNGKEVLKTMWLLRSSVNDISYDWKATRVGYNNFTRLSTVEE
56

Quickly give me recorded Activity: biotin-binding activity after 32 min treatment at 99.9° C. for AVR4/5(C122S): AVR4/5 with the cysteine forming intermonomeric disulphide bridges mutated to serine; insect cell produced (protein, UniProt P56734 25-150, looked up, variant C122S) Avidin-related protein 4/5: ARKCSLTGKWTNNLGSIMTIRAVNSRGEFTGTYLTAVADNPGNITLSPLLGIQHKRASQPTFGFTVHWNFSESTTVFTGQCFIDRNGKEVLKTMWLLRSSVNDISYDWKATRVGYNNFTRLSTVEE
72

Hello, please tell me recorded Activity: biotin-binding activity after 32 min treatment at 99.9° C. for this one: ChiAVD: Chimeric avidin: residues 38-58 moved from AVR4/5 to avidin (SEQ ID NO:15) (protein, listed as Gallus gallus) MVHATSPLLLLLLLSLALVAPGLSARKCSLTGKWTNDLGSNMTIGAVNSRGEFTGTYITAVADNPGNITLSPLLGIQHKRASQPTFGFTVNWKFSESTTVFTGQCFIDRNGKEVLKTMWLLRSSVNDIGDDWKATRVGINIFTRLRTQKE
47

Value source: patent US7268216B2
